Reported values of ED50 for individual entries
- System: Mus musculus
- testMethodNotes: Analgesic activity in tail flick test, subcutaneous administration
- Format: functional
- conditionSet: Mus musculus, Tail, sc; read-out: ED50

Use the examples below as a reference point.
> print(dat)
                                   compound  measuredquantity       result
1  CN(C(=O)CC1(O)CCN(CCc2ccccc2Cl)CC1)C1CCCCC1.Cl              ED50  > 3.2 mg/kg
2  CC(C(=O)N(C)c1cccc(O)c1)C1(O)CCN(CCc2ccccc2Cl)CC1.O=C(O)/C=C/C(=O)O (stereo not drawn)              ED50   > 56 mg/kg

Turning now to a further compound:
Summary for this compound, Br.CCCCCCCN1CCC(O)(C(C)C(=O)N(C)C2CCCCC2)CC1 (stereo not drawn) : ED50 is > 56 mg/kg

====

- Tested on: Mus musculus
- testMethodNotes: Analgesic activity in tail flick test, subcutaneous administration
- Type: functional
- conditionSet: Mus musculus, Tail, sc; read-out: ED50
measuredQuantity: ED50

Summary for this molecule, CCCCC(C(=O)N(C)C1CCCCC1)C1(O)CCN(CCc2ccccc2Cl)CC1.O=C(O)/C=C/C(=O)O (stereo not drawn) : ED50 is > 56 mg/kg

Summary for this molecule, CCC(=O)OC1(C(C)C(=O)N(C)C2CCCCC2)CCN(CCc2ccccc2Cl)CC1 (stereo not drawn) : ED50 is < 3.2 mg/kg

Summary for this molecule, CC(C(=O)NC1CCCCC1)C1(O)CCN(CCc2ccccc2Cl)CC1.O=C(O)/C=C\C(=O)O (stereo not drawn) : ED50 is > 3.2 mg/kg

====

- Test system: Mus musculus
- testMethodNotes: Analgesic activity in tail flick test, oral administration
- Format: functional
- conditionSet: Mus musculus, Tail, po; read-out: ED50
measuredQuantity: ED50

Use the examples below as a reference point.
> print(dat)
                                   compound  measuredquantity       result
1  CN(C(=O)C(C)(C)C1(O)CCN(CCc2ccccc2Cl)CC1)C1CCCCC1              ED50  > 100 mg/kg
2  CC(C(=O)N(C1CCCCC1)C(C)(C)C)C1(O)CCN(CCc2ccccc2Cl)CC1.O=C(O)/C=C/C(=O)O (stereo not given)              ED50   > 56 mg/kg
3  CC(C(=O)N(C)c1ccc(Cl)cc1)C1(O)CCN(CCc2ccccc2Cl)CC1.O=C(O)/C=C/C(=O)O (stereo not given)              ED50   > 56 mg/kg
4  CCN(C(=O)C(C)(C)C1(O)CCN(CCc2ccccc2Cl)CC1)c1ccccc1OC.O=C(O)/C=C/C(=O)O              ED50  > 100 mg/kg

Turning now to a further compound:
Summary for this compound, CCOc1ccccc1N(C)C(=O)C(C)C1(O)CCN(CCc2ccccc2Cl)CC1.O=C(O)/C=C/C(=O)O (stereo not given) : ED50 is < 32 mg/kg

====

Reported values of ED50 for individual entries
- Tested on: Mus musculus
- testMethodNotes: Analgesic activity in tail flick test, oral administration
- Format: functional
- conditionSet: Mus musculus, Tail, po; read-out: ED50

Summary for this molecule, CCCCNC(=O)C(C)C1(O)CCN(CCc2ccccc2Cl)CC1 (stereo unspecified) : ED50 is < 100 mg/kg

Summary for this molecule, COc1ccccc1N(C)C(=O)C(C)C1(O)CCN(CCc2ccccc2Cl)CC1.O=C(O)/C=C\C(=O)O (stereo unspecified) : ED50 is > 18 mg/kg

Source of measurements: ChEMBL document CHEMBL1122480
